Entries and their residual activity
molecular target: FGFR2 (human); assay: radiometric filter-binding kinase assay, Kinase HotSpot; settings: compound 0.5 µM; ATP 10 µM
Just the number in %, nothing appended.

Reference set (10 entries):
## Task Need residual activity, item O=c1cc(N2CCOCC2)oc2c1ccc1ccccc12
## Result 107

## Task Need residual activity, item Nc1ccc2ncnc(NCCc3ccc(Oc4ccccc4)cc3)c2c1
## Result 95.5

## Task Need residual activity, item CCN(CC)C(=O)c1ccc(Nc2nc(OCC3CCCCC3)c3nc[nH]c3n2)cc1
## Result 76.6

## Task Need residual activity, item Cc1ccc(Nc2nccc(N(C)c3ccc4c(C)n(C)nc4c3)n2)cc1S(N)(=O)=O
## Result 40.2

## Task Need residual activity, item CNc1cc2c(Nc3cccc(Br)c3)ncnc2cn1
## Result 96.3

## Task Need residual activity, item Oc1cccc(-c2nc(N3CCOCC3)c3oc4ncccc4c3n2)c1
## Result 95.7

## Task Need residual activity, item CC(C)N(CCC(=O)c1ccc2ccccc2c1)Cc1ccccc1
## Result 107

## Task Need residual activity, item Nc1cccc(-c2cc3c(Oc4cccc(O)c4)ncnc3[nH]2)c1
## Result 46.1

## Task Need residual activity, item c1ccc(-c2n[nH]c3c2oc2ccccc23)cc1
## Result 97

## Task Need residual activity, item CC(=O)c1ccc(N2CCOCC2)cc1O
## Result 108

// below: residual activity requested for another compound
## Task Need residual activity, item CC[n+]1c(/C=C/N(C)c2ccccc2)n(-c2ccccc2)c2ccc(-c3nc4ccccc4s3)cc21
## Result 100

* * *

target: NEK3 (human) (UniProt P51956); experiment: radiometric filter-binding kinase assay, Kinase HotSpot; settings: compound 0.5 µM; ATP 10 µM
Sequence (P51956 whole entry, looked up): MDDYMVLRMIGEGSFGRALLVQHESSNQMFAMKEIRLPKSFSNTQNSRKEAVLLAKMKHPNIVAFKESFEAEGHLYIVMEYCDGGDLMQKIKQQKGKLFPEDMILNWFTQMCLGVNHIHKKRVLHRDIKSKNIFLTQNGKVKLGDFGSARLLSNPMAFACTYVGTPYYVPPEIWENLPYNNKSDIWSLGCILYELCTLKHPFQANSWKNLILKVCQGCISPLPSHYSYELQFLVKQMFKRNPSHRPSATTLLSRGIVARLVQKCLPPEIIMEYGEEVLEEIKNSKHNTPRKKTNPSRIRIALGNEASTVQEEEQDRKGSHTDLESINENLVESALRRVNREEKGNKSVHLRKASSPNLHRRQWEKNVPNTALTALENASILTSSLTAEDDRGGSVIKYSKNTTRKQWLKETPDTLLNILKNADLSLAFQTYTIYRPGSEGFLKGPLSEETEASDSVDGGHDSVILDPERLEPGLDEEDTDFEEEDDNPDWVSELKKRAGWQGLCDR
experimental_readout: residual activity (%)
Just the number in %, nothing appended.

Reference set (3 entries):
## Task Need residual activity, item Cc1ccc(NC2=CC(=O)c3sc(C)nc3C2=O)cc1
## Result 88.2

## Task Need residual activity, item CCN(CC)CCNC(=O)c1c(C)[nH]c(/C=C2\C(=O)Nc3ccc(Cl)cc32)c1C
## Result 94

## Task Need residual activity, item CNc1cc2c(Nc3cccc(Br)c3)ncnc2cn1
## Result 101

// below: residual activity requested for another compound
## Task Need residual activity, item Nc1ncnc2c1c(-c1ccc(Oc3ccccc3)cc1)cn2C1CCCC1
## Result 98.4

* * *

target: MAPK13 (human); test: radiometric filter-binding kinase assay, Kinase HotSpot; conditions: compound 0.5 µM; ATP 10 µM
Entries and their residual activity

Reference set (2 entries):
## Task Need residual activity, item O=C1NC(=O)C(c2cn(CCCn3ccnc3)c3ccccc23)=C1Nc1ccccc1
## Result 122%

## Task Need residual activity, item N#CC(C#N)=C(N)/C(C#N)=C/c1ccc(O)cc1
## Result 103%

Others:
## Task Need residual activity, item COc1ccc(COc2ccc(Cc3cnc(N)nc3N)cc2OC)cc1
## Result 96%

## Task Need residual activity, item CNC(=O)c1cc(Oc2ccc(NC(=O)Nc3ccc(Cl)c(C(F)(F)F)c3)cc2)ccn1
## Result 97.5%

## Task Need residual activity, item COc1ccc2c(c[n+](C)c3c4cc5c(cc4ccc23)OCO5)c1OC
## Result 97.3%

* * *

molecular target: MAPK10 (human) (UniProt P53779); assay: radiometric filter-binding kinase assay, Kinase HotSpot; details: compound 0.5 µM; ATP 10 µM
Sequence (P53779 whole entry, looked up): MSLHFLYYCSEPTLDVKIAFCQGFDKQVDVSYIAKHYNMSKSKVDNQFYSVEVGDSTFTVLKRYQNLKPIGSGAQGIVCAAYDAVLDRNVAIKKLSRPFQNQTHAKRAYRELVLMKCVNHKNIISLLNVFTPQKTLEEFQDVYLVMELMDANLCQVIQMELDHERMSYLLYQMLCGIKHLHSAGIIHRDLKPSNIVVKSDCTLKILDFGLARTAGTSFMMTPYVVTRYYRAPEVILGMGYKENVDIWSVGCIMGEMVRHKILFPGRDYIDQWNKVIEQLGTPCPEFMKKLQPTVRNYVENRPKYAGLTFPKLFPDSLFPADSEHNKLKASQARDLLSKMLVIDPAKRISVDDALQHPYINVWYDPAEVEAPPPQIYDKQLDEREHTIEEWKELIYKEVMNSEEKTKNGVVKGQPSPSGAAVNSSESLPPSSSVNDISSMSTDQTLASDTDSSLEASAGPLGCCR
Labelling: residual activity reported below 90% becomes T; at or above becomes F.

## Task Bench note: check whether O=C1Nc2ccc(Cl)cc2/C1=C/c1cc(Cl)c(O)c(Cl)c1 shows residual activity below 90%
## Result F

## Task Bench note: check whether CC#CC(=O)Nc1cc2c(Nc3ccc(F)c(Cl)c3)ncnc2cn1 shows residual activity below 90%
## Result T

## Task Bench note: check whether N#C/C(=C(/N)Sc1ccc(N)cc1)c1ccccc1C(F)(F)F shows residual activity below 90%
## Result F

## Task Bench note: check whether CCOC(=O)c1c(C)[nH]c(/C=C2\C(=O)Nc3ccccc32)c1C shows residual activity below 90%
## Result T

## Task Bench note: check whether CNc1cc2c(Nc3cccc(Br)c3)ncnc2cn1 shows residual activity below 90%
## Result F

Now look at this one.
## Task Bench note: check whether COc1ccc(COc2ccc(Cc3cnc(N)nc3N)cc2OC)cc1 shows residual activity below 90%
## Result T

* * *

target: UniProt:Q8TD19; assay: radiometric filter-binding kinase assay, Kinase HotSpot; details: compound 0.5 µM; ATP 10 µM
Sequence (Q8TD19 whole entry, looked up): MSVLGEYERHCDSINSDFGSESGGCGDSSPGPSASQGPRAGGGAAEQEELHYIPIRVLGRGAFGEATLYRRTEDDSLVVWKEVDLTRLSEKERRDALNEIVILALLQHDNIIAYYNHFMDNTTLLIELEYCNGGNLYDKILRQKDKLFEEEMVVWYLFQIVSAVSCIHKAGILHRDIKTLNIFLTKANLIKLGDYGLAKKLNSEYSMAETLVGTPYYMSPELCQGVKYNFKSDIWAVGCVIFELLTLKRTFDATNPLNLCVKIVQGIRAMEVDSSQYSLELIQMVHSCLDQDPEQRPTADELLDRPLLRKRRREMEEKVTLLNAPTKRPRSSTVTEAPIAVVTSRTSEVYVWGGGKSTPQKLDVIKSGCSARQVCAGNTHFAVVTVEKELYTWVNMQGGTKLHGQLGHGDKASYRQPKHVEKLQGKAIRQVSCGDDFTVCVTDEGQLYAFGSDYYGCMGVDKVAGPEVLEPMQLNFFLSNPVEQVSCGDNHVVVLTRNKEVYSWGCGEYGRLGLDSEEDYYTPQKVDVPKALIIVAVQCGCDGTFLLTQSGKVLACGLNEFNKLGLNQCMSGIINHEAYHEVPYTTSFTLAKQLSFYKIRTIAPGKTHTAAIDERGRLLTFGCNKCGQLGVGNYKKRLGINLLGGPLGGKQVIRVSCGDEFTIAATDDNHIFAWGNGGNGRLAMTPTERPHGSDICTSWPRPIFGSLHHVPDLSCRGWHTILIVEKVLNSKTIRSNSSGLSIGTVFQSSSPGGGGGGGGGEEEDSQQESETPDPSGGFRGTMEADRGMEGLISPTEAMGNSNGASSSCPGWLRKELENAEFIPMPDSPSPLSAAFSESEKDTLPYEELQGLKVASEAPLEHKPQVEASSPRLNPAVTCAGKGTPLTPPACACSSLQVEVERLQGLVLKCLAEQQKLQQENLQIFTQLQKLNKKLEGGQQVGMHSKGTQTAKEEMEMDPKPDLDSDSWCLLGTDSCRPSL
Entries and their residual activity
The reply should read as a number followed by its unit.

## Task Need residual activity, item N#CC(C#N)=C(N)/C(C#N)=C/c1ccc(O)cc1
## Result 97.9%

## Task Need residual activity, item CCOC(=O)c1c(C)[nH]c(/C=C2\C(=O)Nc3ccccc32)c1C
## Result 80.8%

## Task Need residual activity, item CCN(CC)CCNC(=O)c1c(C)[nH]c(/C=C2\C(=O)Nc3ccc(Cl)cc32)c1C
## Result 95.9%

## Task Need residual activity, item CCN(CC)C(=O)c1ccc(Nc2nc(OCC3CCCCC3)c3nc[nH]c3n2)cc1
## Result 81.9%

## Task Need residual activity, item Cc1[nH]c(/C=C2\C(=O)Nc3ccc(S(=O)(=O)N(C)c4cccc(Cl)c4)cc32)c(C)c1C(=O)N1CCN(C)CC1
## Result 92.5%

## Task Need residual activity, item Cc1ccc(S(=O)(=O)/C=C/C#N)cc1
## Result 95.6%

* * *

molecular target: TAOK3 (human) (UniProt Q9H2K8); test: radiometric filter-binding kinase assay, Kinase HotSpot; conditions: compound 0.5 µM; ATP 10 µM
Sequence (Q9H2K8 whole entry, looked up): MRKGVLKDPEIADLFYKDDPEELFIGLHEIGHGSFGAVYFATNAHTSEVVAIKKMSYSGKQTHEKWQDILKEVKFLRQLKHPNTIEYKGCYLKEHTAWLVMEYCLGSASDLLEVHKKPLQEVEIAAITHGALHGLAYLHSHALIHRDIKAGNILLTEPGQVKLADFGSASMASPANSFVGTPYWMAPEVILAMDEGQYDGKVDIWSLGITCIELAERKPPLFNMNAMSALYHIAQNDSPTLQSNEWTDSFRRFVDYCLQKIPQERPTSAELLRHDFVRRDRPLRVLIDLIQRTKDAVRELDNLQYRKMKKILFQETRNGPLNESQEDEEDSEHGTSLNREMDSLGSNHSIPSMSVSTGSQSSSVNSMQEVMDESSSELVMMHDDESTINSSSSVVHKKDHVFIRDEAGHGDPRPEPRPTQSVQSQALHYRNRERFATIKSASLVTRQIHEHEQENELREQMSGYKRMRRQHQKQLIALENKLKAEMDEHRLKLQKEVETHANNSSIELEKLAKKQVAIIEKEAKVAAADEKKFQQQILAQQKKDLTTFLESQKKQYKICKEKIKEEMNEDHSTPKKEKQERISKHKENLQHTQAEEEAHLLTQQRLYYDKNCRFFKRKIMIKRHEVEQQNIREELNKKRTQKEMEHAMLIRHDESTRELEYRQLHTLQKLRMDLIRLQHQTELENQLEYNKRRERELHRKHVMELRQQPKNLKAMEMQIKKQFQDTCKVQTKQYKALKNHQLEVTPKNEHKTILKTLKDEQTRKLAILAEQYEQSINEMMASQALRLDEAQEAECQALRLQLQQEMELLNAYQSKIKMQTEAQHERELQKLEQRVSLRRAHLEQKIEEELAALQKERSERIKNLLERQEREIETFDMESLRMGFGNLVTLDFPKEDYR
Would you mind labelling by residual activity? At or over 90% is Fulfilled, under is Not fulfilled.

## Task // inclusive: residual activity at least 90%? input: CNC(=O)c1cc(Oc2ccc(NC(=O)Nc3ccc(Cl)c(C(F)(F)F)c3)cc2)ccn1
## Result Not fulfilled

## Task // inclusive: residual activity at least 90%? input: O=S(=O)(c1cccc2cnccc12)N1CCCNCC1
## Result Fulfilled

## Task // inclusive: residual activity at least 90%? input: Cc1ccc(NC2=CC(=O)c3sc(C)nc3C2=O)cc1
## Result Fulfilled

* * *

Entries and their residual activity
molecular target: NEK7 (human) (UniProt Q8TDX7); assay: radiometric filter-binding kinase assay, Kinase HotSpot; conditions: compound 0.5 µM; ATP 10 µM
Sequence (Q8TDX7 whole entry, looked up): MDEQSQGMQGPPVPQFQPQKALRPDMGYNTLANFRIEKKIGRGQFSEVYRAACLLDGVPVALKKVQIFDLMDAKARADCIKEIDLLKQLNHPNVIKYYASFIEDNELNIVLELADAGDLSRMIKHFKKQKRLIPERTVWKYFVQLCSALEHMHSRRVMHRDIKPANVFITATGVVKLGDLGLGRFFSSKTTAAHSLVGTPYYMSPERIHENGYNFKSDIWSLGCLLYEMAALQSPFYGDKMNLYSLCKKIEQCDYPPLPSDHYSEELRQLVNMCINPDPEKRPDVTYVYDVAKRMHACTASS
Just the number in %, nothing appended.

Reference set (5 entries):
## Task Need residual activity, item CC(C)N(CCC(=O)c1ccc2ccccc2c1)Cc1ccccc1
## Result 95.2

## Task Need residual activity, item CCOC(=O)c1c(C)[nH]c(/C=C2\C(=O)Nc3ccccc32)c1C
## Result 102

## Task Need residual activity, item Cc1ccc(Nc2nccc(N(C)c3ccc4c(C)n(C)nc4c3)n2)cc1S(N)(=O)=O
## Result 101

## Task Need residual activity, item Cc1ccc(NC2=CC(=O)c3sc(C)nc3C2=O)cc1
## Result 96.9

## Task Need residual activity, item CO[C@H]1CC2CC[C@@H](C)[C@@](O)(O2)C(=O)C(=O)N2CCCC[C@H]2C(=O)OC([C@H](C)C[C@@H]2CC[C@@H](O)[C@H](OC)C2)CC(=O)[C@H](C)/C=C(\C)[C@@H](O)[C@@H](OC)C(=O)[C@H](C)C[C@H](C)/C=C/C=C/C=C/1C (stereo partly specified)
## Result 104

Others:
## Task Need residual activity, item CCN(CC)C(=O)c1ccc(Nc2nc(OCC3CCCCC3)c3nc[nH]c3n2)cc1
## Result 103

* * *

molecular target: INSRR (human); assay: radiometric filter-binding kinase assay, Kinase HotSpot; conditions: compound 0.5 µM; ATP 10 µM
Would you mind labelling by residual activity? At or over 90% is true (1), under is false (0).

# count of solved cases: 5
## Task // inclusive: residual activity at least 90%? input: O=C1NC(=O)c2c1c1c3ccccc3n3c1c1c2c2ccccc2n1C1CCC3O1
## Result false (0)

## Task // inclusive: residual activity at least 90%? input: O=c1cc(N2CCOCC2)oc2c1ccc1ccccc12
## Result true (1)

## Task // inclusive: residual activity at least 90%? input: COc1ccc(COc2ccc(Cc3cnc(N)nc3N)cc2OC)cc1
## Result true (1)

## Task // inclusive: residual activity at least 90%? input: Oc1cccc(-c2nc(N3CCOCC3)c3oc4ncccc4c3n2)c1
## Result true (1)

## Task // inclusive: residual activity at least 90%? input: Cc1ccc(Nc2nccc(N(C)c3ccc4c(C)n(C)nc4c3)n2)cc1S(N)(=O)=O
## Result true (1)

Others:
## Task // inclusive: residual activity at least 90%? input: Nc1ncnc2c1c(-c1ccc(Oc3ccccc3)cc1)cn2C1CCCC1
## Result false (0)

## Task // inclusive: residual activity at least 90%? input: CCN(CC)C(=O)c1ccc(Nc2nc(OCC3CCCCC3)c3nc[nH]c3n2)cc1
## Result false (0)

## Task // inclusive: residual activity at least 90%? input: CO[C@H]1CC2CC[C@@H](C)[C@@](O)(O2)C(=O)C(=O)N2CCCC[C@H]2C(=O)OC([C@H](C)C[C@@H]2CC[C@@H](O)[C@H](OC)C2)CC(=O)[C@H](C)/C=C(\C)[C@@H](O)[C@@H](OC)C(=O)[C@H](C)C[C@H](C)/C=C/C=C/C=C/1C (some centres undefined)
## Result true (1)
